TEST PROTOCOL: NCI Yeast Anticancer Drug Screen. Data for the mlh1 rad18 strain (AID 175)
CONDITION DETAILS: S. cerevisiae mlh1 rad18 strain growth inhibition; at 50.0 µM; hits give high values
Compounds without any hit were thinned out: in the full panel of roughly 79,000, 15% have a hit.
Reported growth inhibition values follow for various compounds
Give your result in % as a bare value.

See these solved cases before continuing.
Clc1ccc(C2NC(c3ccc(Cl)cc3)NC(c3ccc(Cl)cc3)N2)cc1 (stereo not drawn); -2
COc1ccccc1C1OC2=C(Nc3ccc(Cl)cc3N2)C1=O (stereo not drawn); -2.95
CC(C)CCC[C@@H](C)[C@H]1CC[C@H]2[C@@H]3CC=C4C[C@@H](OC(=O)c5cccc6c(=O)c7ccccc7[nH]c56)CC[C@]4(C)[C@H]3CC[C@]12C; -28.9
CN1CC[C@H]([C@@H](O)c2ccccc2)C1=O; 5.7
CC(=O)Oc1ccc(Nn2c3ccccc3c3ccccc32)c(C)c1; 43
O=C1C(C2CCCCC2)=C2OCC3COC2(O3)c2ccccc21 (stereo not drawn); -30.7
O=CNNC(=O)Nc1cccc2ccccc12; -25.5
CCOC(=O)C(NC(=S)Cc1ccccc1)C(=O)OCC; -0.35

Form field: reported growth inhibition of `Nc1nc2[nH]c(=O)c(C(=O)O)nc2c(=O)[nH]1`
-11.6

How about this compound: `C=CCOC(=O)Oc1ccc(Cl)cc1`
28.6
